# ASSAYED_TARGET: T1, human GM-CSFRα, full length on cells (human, UniProt P15509 23-400)
# T1 sequence: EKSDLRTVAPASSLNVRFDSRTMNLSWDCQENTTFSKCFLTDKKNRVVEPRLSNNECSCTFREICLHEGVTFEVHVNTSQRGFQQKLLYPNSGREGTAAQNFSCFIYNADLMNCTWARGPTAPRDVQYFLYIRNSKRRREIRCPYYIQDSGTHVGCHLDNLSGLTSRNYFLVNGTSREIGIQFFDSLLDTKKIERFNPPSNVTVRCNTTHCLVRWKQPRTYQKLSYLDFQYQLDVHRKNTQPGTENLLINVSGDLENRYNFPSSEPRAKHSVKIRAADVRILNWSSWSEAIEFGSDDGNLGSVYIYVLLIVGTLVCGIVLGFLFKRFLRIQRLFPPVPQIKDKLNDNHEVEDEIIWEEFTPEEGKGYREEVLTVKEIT
# ASSAY_COMMENT: cell-based or functional assay
PROPERTY_NAME: IC50, TF-1 cell proliferation (µg/mL)
Give the quantity in µg/mL, number only.

stdin: Name the reported IC50, TF-1 cell proliferation value associated with the binder E35-VH28H-VL30L-93D-IG4 (antibody, IgG4, V domains shown) VH: QMQLVQSGAEVKKPGASVKVSCKVSGYHLTELSIHWVRQAPGKGLEWMGGFDPEDGETIYAQKFQGRVTMTGDTSTDTAYLELSSLRSEDTALYYCATGRYTSLATTYGFDYWGQGTLVTVSS VL: EIVMTQSPATLSLSPGERATLSCRASQSVLSYLAWYQQKPGQAPRLLIYGASSRATGIPDRFSGSGSGTDFTLTISRLEPEDFAVYYCQQYDDWPYTFGQGTKLEIK
stdout: 0.0241
